Just for reference, ChEMBL document CHEMBL6182926 is where these values come from.

- Experiment: Cytotoxicity against human SH-SY5Y cells measured after 72 hrs by MTT assay
- Assay type: toxicity, cell-based
Measurement Label: IC50 at 72 h (µM)

1. [2H]C([2H])([2H])N(Cc1ccc(-c2ccc(OC(F)(F)F)cc2)cc1)[C@H](C)[C@](O)(Cn1cncn1)c1ccc(F)cc1F : 25.2

* * *

- Target Or Test System: Cytochrome P450 2D6 (Homo sapiens, UniProt P10635)
- Sequence (P10635 whole entry): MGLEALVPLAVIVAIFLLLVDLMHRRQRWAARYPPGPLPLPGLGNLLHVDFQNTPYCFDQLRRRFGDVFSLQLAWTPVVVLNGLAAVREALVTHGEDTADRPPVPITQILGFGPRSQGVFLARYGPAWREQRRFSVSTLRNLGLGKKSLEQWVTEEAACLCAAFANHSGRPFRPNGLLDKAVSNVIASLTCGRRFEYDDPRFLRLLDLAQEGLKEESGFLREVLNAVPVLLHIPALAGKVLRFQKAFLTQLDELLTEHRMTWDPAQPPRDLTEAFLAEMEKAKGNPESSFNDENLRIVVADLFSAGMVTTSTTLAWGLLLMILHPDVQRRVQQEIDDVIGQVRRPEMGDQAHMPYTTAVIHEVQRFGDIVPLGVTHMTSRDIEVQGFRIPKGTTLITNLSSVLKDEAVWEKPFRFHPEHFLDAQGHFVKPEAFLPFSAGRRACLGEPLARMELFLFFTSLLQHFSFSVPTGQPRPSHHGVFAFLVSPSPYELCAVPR
Measurement Label: IC50

1) [2H]C([2H])([2H])N(Cc1ccc(-c2ccc(OC(F)(F)F)cc2)cc1)[C@H](C)[C@](O)(Cn1cncn1)c1ccc(F)cc1F : > 10 µM

* * *

- Test system: Cryptococcus neoformans
- Experiment: Antifungal activity against Cryptococcus neoformans CGMCC 2.3161 assessed as inhibition of visible growth
- Type: functional
log10(MIC80) listing for selected compounds.
Measurement Label: log10(MIC80) (log10 of the value in µg/mL)

1. CN(Cc1ccc(-c2ccc(Cl)cc2)cn1)CC(O)(Cn1cncn1)c1ccc(F)cc1F (configuration not stated) : -1.60
2. CN(Cc1ccc(N2CCN(Cc3ccc(F)cc3Br)CC2)cc1)CC(O)(Cn1cncn1)c1ccc(F)cc1F (configuration not stated) : -1.92
3. CN(Cc1ccc(-c2ccc(OCC(F)(F)F)cc2)cn1)CC(O)(Cn1cncn1)c1ccc(F)cc1F (configuration not stated) : -1.00
4. CN(Cc1ccc(-c2ccc(OC(F)(F)F)cc2)o1)CC(O)(Cn1cncn1)c1ccc(F)cc1F (configuration not stated) : -0.70
5. [2H]C([2H])([2H])N(Cc1ccc(-c2ccc(Cl)cc2)c(F)c1)[C@H](C)[C@](O)(Cn1cncn1)c1ccc(F)cc1F : -1.92
6. [2H]C([2H])([2H])N(Cc1ccc(-c2ccc(OC(F)(F)F)cc2)cc1F)[C@H](C)[C@](O)(Cn1cncn1)c1ccc(F)cc1F : -1.60
7. OC(CNCc1ccc(-c2ccc(Cl)cc2)cc1)(Cn1cncn1)c1ccc(F)cc1F (configuration not stated) : -1.30
8. CN(Cc1ccc(-c2cccc(Cl)c2)cn1)CC(O)(Cn1cncn1)c1ccc(F)cc1F (configuration not stated) : -1.60
9. CN(Cc1ccc(-c2ccc(Cl)cc2)nc1)CC(O)(Cn1cncn1)c1ccc(F)cc1F (configuration not stated) : -1.30
10. CN(Cc1ccc(-c2ccc(C(F)(F)F)cc2)s1)CC(O)(Cn1cncn1)c1ccc(F)cc1F (configuration not stated) : -1.00
11. [2H]C([2H])([2H])N(Cc1ccc(-c2ccc(Cl)cc2F)cc1)[C@H](C)[C@](O)(Cn1cncn1)c1ccc(F)cc1F : -1.92
12. CN(Cc1ccc(-c2ccc(OC(F)(F)F)cc2)s1)CC(O)(Cn1cncn1)c1ccc(F)cc1F (configuration not stated) : -1.30
13. CN(Cc1cnc(-c2ccc(OC(F)(F)F)cc2)s1)CC(O)(Cn1cncn1)c1ccc(F)cc1F (configuration not stated) : -1.00
14. CN(Cc1ccc(-c2ccc(OC(F)(F)F)cc2)cc1)CC(O)(Cn1cncn1)c1ccc(F)cc1F (configuration not stated) : -1.92
15. [2H]C([2H])([2H])N(Cc1ccc(-c2ccc(C(F)(F)F)cc2)cc1)[C@H](C)[C@](O)(Cn1cncn1)c1ccc(F)cc1F : -1.92
16. CN(Cc1ccc(-c2ccccc2)cn1)CC(O)(Cn1cncn1)c1ccc(F)cc1F (configuration not stated) : -1.00
17. [2H]C([2H])([2H])N(Cc1ccc(-c2ccc(Cl)c(F)c2)cc1)[C@H](C)[C@](O)(Cn1cncn1)c1ccc(F)cc1F : -2.22
